The following compounds were reported with Ki values on Carbonic anhydrase 4 (Homo sapiens, UniProt P22748) in different studies.
OBSERVATION_TYPE: Ki

Cc1ccc(NS(=O)(=O)c2ccc(Nc3ncc4c(n3)CCCC4=O)cc2)cc1 = > 100 µM
O=C(COc1ccc2oc(=O)ccc2c1)NCc1ccccc1 = > 10 µM
NS(=O)(=O)c1ccc(C(=O)Nc2nc(CC(=O)N3CC(=O)N4CCc5ccccc5C4C3)cs2)cc1 (stereo not drawn) = 0.422 µM
CC1(C)CC(=O)c2cnc(Nc3ccc(S(=O)(=O)Nc4ccc([N+](=O)[O-])cc4)cc3)nc2C1 = > 100 µM
O=C(COc1ccc2ccc(=O)oc2c1)Nc1ccccc1 = > 10 µM
O=C1CCCc2nc(Nc3ccc(S(=O)(=O)Nc4ccccc4)cc3)ncc21 = > 100 µM

---

Ki for Carbonic anhydrase 4 (Homo sapiens, UniProt P22748) - collated from the literature.
OBSERVATION_TYPE: Ki

NS(=O)(=O)c1ccc(CNC(=O)NCc2cn(CCCS(=O)(=O)[O-])nn2)cc1.[Na+] = 0.0502 µM
O=C(COc1ccc2ccc(=O)oc2c1)NCCc1ccccc1 = > 10 µM
COc1cccc(OCc2cn(CCCCS(N)(=O)=O)nn2)c1 = 8.27 µM
CC1(C)CC(=O)c2cnc(Nc3ccc(S(=O)(=O)Nc4ccccc4)cc3)nc2C1 = 91.1 µM
COC(=O)c1ccccc1NC(=O)COc1ccc2ccc(=O)oc2c1 = > 10 µM

---

Here, compounds appear alongside pKi reported for UniProt:P22748 in the literature.
pKi: −log10 of the molar value.
pKi of 5 or higher: TRUE. Under 5: FALSE.

NS(=O)(=O)c1ccc(-n2nnc(S(=O)(=O)c3ccccc3)c2-c2ccccc2)cc1 = TRUE
NS(=O)(=O)c1ccc(CCC(=O)N2CC(=O)N3CCc4ccccc4C3C2)cc1 (centres unmarked) = TRUE
COc1ccc(NS(=O)(=O)c2ccc(Nc3ncc4c(n3)CC(C)(C)CC4=O)cc2)cc1 = FALSE
C#CCOc1ccc2ccc(=O)oc2c1 = TRUE
NS(=O)(=O)CCCn1cc(COc2ccccc2)nn1 = TRUE

---

Values of Ki for Carbonic anhydrase 4 (Homo sapiens, UniProt P22748), collected from a number of published sources:
OBSERVATION_TYPE: Ki (nM)

NS(=O)(=O)c1ccc(NC(=O)NCc2cn(CCCS(=O)(=O)[O-])nn2)cc1.[Na+] = 63.5
NS(=O)(=O)c1ccc(-n2nnc(S(=O)(=O)c3ccccc3)c2-c2ccc(Cl)cc2)cc1 = 526
COc1ccc(OCc2cn(CCCS(N)(=O)=O)nn2)cc1 = 5440
NS(=O)(=O)c1ccc(-n2nnc(S(=O)(=O)c3ccccc3)c2-c2ccc(F)cc2)cc1 = 86.1
NS(=O)(=O)c1ccc(NC(=O)c2ccc3cccc(OCc4cc(F)ccc4F)c3n2)cc1 = 787
NS(=O)(=O)c1ccc(NC(=O)Nc2ccc(OCc3cn(CCCS(=O)(=O)[O-])nn3)cc2)cc1.[Na+] = 36.7
NS(=O)(=O)c1ccc(-n2nnc(S(=O)(=O)c3ccccc3)c2-c2ccc(-c3ccccc3)cc2)cc1 = 414
NS(=O)(=O)c1ccc(-n2nnc(S(=O)(=O)c3ccccc3)c2-c2ccc([N+](=O)[O-])cc2)cc1 = 84.7
O=C(COc1ccc2oc(=O)ccc2c1)Nc1ccc(F)cc1 = 848
Cc1ccc(-c2c(S(=O)(=O)c3ccccc3)nnn2-c2ccc(S(N)(=O)=O)cc2)cc1 = 82.1
COc1cccc2ccc(C(=O)Nc3ccc(S(N)(=O)=O)cc3)nc12 = 1750
NS(=O)(=O)c1ccc(CCN2C(=S)NC3C(O)C(C(O)CO)OC32)cc1 (centres unmarked) = 1050

---

Assay read-out Ki on UniProt P22748; records merged from the literature.
OBSERVATION_TYPE: Ki (nM)

CCOC(=O)c1ccc(NC(=O)NCc2cn(CCCCS(N)(=O)=O)nn2)cc1 = 2600
NS(=O)(=O)c1ccc(-n2nnc(S(=O)(=O)c3ccccc3)c2-c2ccc(Br)cc2)cc1 = 801
CCC(=O)Nc1cc(S(N)(=O)=O)ccc1OCc1cn(CCCS(=O)(=O)[O-])nn1.[Na+] = 322

---

pKi: −log10 of the molar value.
Kindly find below pKi information for Carbonic anhydrase 4 (Homo sapiens) taken from the literature.
Parameter threshold = 6. Response is condition met when pKi meets or exceeds it, else condition not met.

NS(=O)(=O)c1ccc(NC(=O)c2ccc3cccc(OCc4ccccc4Br)c3n2)cc1 = condition not met
CCOC(=O)COc1ccc2ccc(=O)oc2c1 = condition not met
O=C1CC(c2ccccc2)Cc2nc(Nc3ccc(S(=O)(=O)Nc4ccc([N+](=O)[O-])cc4)cc3)ncc21 (centres unmarked) = condition not met
NS(=O)(=O)c1ccc(N2CC[C@@H](NC(=O)Nc3ccc(F)cc3)C2)nc1 = condition not met
CC(=O)Nc1cc(S(N)(=O)=O)ccc1OCc1cn(CCCS(=O)(=O)[O-])nn1.[Na+] = condition met
NS(=O)(=O)c1ccc(NCc2cn(CCCS(=O)(=O)[O-])nn2)cc1.[Na+] = condition met
O=C(COc1ccc2oc(=O)ccc2c1)Nc1ccccc1 = condition not met

---

Below are pKi values for Carbonic anhydrase 4 (Homo sapiens) collected from several publications.
pKi: −log10 of the molar value.
OBSERVATION_TYPE: pKi

O=C1CCCc2nc(Nc3ccc(S(=O)(=O)Nc4ccc([N+](=O)[O-])cc4)cc3)ncc21 = < 4.00
Cc1ccc(NS(=O)(=O)c2ccc(Nc3ncc4c(n3)CC(c3ccccc3)CC4=O)cc2)cc1 (centres unmarked) = < 4.00
O=C(COc1ccc2oc(=O)ccc2c1)NCCc1ccccc1 = < 5.00
O=C(COc1ccc2oc(=O)ccc2c1)NCc1ccc(F)cc1 = < 5.00
COc1cccc(NC(=O)NCc2cn(CCCS(N)(=O)=O)nn2)c1 = < 5.00
